- system: CAMKK2 (Homo sapiens, UniProt Q96RR4)
- Construct: made in house
- Sequence (Q96RR4 whole entry): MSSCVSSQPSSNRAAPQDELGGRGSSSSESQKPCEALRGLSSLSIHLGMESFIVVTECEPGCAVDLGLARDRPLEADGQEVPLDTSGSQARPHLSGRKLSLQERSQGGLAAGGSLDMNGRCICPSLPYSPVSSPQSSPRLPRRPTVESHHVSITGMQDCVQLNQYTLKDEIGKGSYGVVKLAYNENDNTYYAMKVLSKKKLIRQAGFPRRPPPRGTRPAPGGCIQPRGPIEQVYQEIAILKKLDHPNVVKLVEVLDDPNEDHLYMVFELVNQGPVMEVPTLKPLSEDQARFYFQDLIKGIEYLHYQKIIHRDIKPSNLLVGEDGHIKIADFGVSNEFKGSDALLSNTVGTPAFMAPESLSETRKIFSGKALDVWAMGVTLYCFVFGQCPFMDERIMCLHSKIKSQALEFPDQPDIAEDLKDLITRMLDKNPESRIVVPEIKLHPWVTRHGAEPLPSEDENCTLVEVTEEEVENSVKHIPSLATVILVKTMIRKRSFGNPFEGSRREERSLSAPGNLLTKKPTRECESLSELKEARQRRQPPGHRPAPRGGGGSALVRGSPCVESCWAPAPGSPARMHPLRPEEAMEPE
- test-summary: CAMKK2 enzyme assay (radiometric, CaMKKtide)
- Format: biochemical
- experimental-conditions: read-out: PoC (activity remaining)
Give remaining activity at 0.01 µM for every item shown.
// note: answer is a bare numeric in %

Input: Param readout = remaining activity at 0.01 µM; param system = CAMKK2 (Homo sapiens, UniProt Q96RR4); param query = CO[C@@H]1[C@H](N(C)C(=O)c2ccccc2)C[C@H]2O[C@]1(C)n1c3ccccc3c3c4c(c5c6ccccc6n2c5c31)C(=O)NC4 [Midostaurin] ; response: value
Output: 97

Input: Provide the documented remaining activity at 0.01 µM with CAMKK2 (Homo sapiens, UniProt Q96RR4) as the system for Nc1nc(Nc2ccc(S(N)(=O)=O)cc2)nn1C(=S)Nc1c(F)cccc1F [CDK 1/2 Inhibitor III]
Output: 69

Input: Kindly state the measured remaining activity at 0.01 µM obtained for COc1cc(N2CCC(N3CCN(C)CC3)CC2)ccc1Nc1ncc(Cl)c(Nc2ccccc2P(C)(C)=O)n1 [AP26113] with CAMKK2 (Homo sapiens, UniProt Q96RR4).
Output: 60

Input: What reported remaining activity at 0.01 µM corresponds to C[C@]12O[C@H](C[C@]1(O)CO)n1c3ccccc3c3c4c(c5c6ccccc6n2c5c31)CNC4=O [Lestaurtinib] on CAMKK2 (Homo sapiens, UniProt Q96RR4)?
Output: 64
